Biological target: TGF-beta-activated kinase 1 (MAP3K7)
Assay: Inhibition of TAK (unknown origin)
assay endpoint: IC50 (nM)
Write the value in nM as a bare number.

- smiles: "COC(=O)Nc1cc(-c2cnc(OC[C@@](C)(N)CC(C)C)c(Cl)c2)ccn1"
  target entity: "TGF-beta-activated kinase 1 (MAP3K7)"
  IC50 [nM]: 120

Moving on to the next compound.
Under TGF-beta-activated kinase 1 (MAP3K7): IC50 value of `COC(=O)Nc1cc(-c2cnc(OC[C@@](C)(N)CC(C)C)c(C#N)c2)ccn1` ?
260

Each recorded value in this set is attributed to BindingDB's records for PubMed 35261239.
